target: Carbonic anhydrase 12 (Homo sapiens, UniProt O43570)
Sequence (O43570 whole entry): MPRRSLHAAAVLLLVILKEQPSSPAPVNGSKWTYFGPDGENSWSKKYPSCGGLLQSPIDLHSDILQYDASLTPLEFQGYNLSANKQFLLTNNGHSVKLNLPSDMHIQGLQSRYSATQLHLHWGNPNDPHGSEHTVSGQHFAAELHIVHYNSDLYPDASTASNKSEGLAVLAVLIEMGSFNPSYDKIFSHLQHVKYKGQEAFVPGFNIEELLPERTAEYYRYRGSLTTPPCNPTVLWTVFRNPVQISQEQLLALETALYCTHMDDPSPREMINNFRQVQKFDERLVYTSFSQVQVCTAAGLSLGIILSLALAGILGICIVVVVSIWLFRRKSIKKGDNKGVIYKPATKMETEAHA
pKi: −log10 of the molar value.
readout.name: pKi

stdin: Provide Carbonic anhydrase 12 (Homo sapiens, UniProt O43570) pKi reading for `CCCN(CCC)S(=O)(=O)c1ccc(C(=O)NCC(=O)O)cc1` .
stdout: < 5.00

----------
biological target: UniProtKB Q16790
This section presents compounds with their documented Ki values.
Give your result in nM as a bare value.

Worked examples follow.
stdin: Output measured Ki for this item: `CCCN(CCC)S(=O)(=O)c1ccc(C(=O)N[C@@H](C)C(N)=O)cc1`
stdout: 15

stdin: Output Ki of `CCCN(CCC)S(=O)(=O)c1ccc(C(=O)N[C@@H](CCCNC(=N)N)C(=O)O)cc1`
stdout: 26

stdin: Please report the measured Ki for `CCCN(CCC)S(=O)(=O)c1ccc(C(=O)N[C@@H](CC(C)C)C(=O)O)cc1`
stdout: 26

stdin: Determine its reported Ki: `CCCN(CCC)S(=O)(=O)c1ccc(C(=O)N[C@@H](CO)C(N)=O)cc1`
stdout: 2.6

More entries:
stdin: State, in one line, measured Ki of `CCCN(CCC)S(=O)(=O)c1ccc(C(=O)N[C@@H](CCCCN)C(=O)O)cc1`
stdout: 32

stdin: Return reported Ki. Input compound: `CCCN(CCC)S(=O)(=O)c1ccc(C(=O)N[C@@H](CCCNC(=N)N)C(N)=O)cc1`
stdout: 20

stdin: Provide Ki value for the following compound: `CCCN(CCC)S(=O)(=O)c1ccc(C(=O)NCC(N)=O)cc1`
stdout: 1.9

stdin: Give a short answer stating reported Ki for `CCCN(CCC)S(=O)(=O)c1ccc(C(=O)N[C@@H](CC(C)C)C(N)=O)cc1` .
stdout: 150

----------
Ki values recorded for UniProt Q16790
Numbers only here, please. The scale is µM.

// solved cases for Ki follow
stdin: Using the record for `CCCN(CCC)S(=O)(=O)c1ccc(C(=O)N[C@@H](Cc2ccc(O)cc2)C(N)=O)cc1` , state its measured Ki.
stdout: 0.021

stdin: Using the record for `CCCN(CCC)S(=O)(=O)c1ccc(C(=O)N[C@@H](CS)C(N)=O)cc1` , state its measured Ki.
stdout: 0.028

Next:
stdin: Read off the recorded Ki for `CCCN(CCC)S(=O)(=O)c1ccc(C(=O)N[C@@H](Cc2c[nH]c3ccccc23)C(=O)O)cc1`
stdout: 0.025
